- System: Fathead minnow (Pimephales promelas) acute toxicity, lethality
- Test summary: DSSTox (EPAFHM) EPA Fathead Minnow Acute Toxicity
Measured Potency values are reported for all entries that follow.

Would you please look over these solved cases?
CCC(C)c1cc([N+](=O)[O-])cc([N+](=O)[O-])c1O (stereo not drawn) | 2.23 µM
OCCCc1cccnc1 | 1090 µM
O=[N+]([O-])c1cccc(Cl)c1 | 119 µM
CCCC(C)C1(CC)C(=O)N=C(S)NC1=O (stereo not drawn) | 99.1 µM
COC(=O)c1ccc(Cl)cc1[N+](=O)[O-] | 128 µM

Request: Report Potency for CC/C=C/CCO please.
Result: 2710 µM

Request: Report Potency for C=CCC(O)C=C (stereo not drawn) please.
Result: 388 µM

Request: Report Potency for CCN(CC)c1ccc(C=O)c(O)c1 please.
Result: 27.7 µM

Request: Report Potency for O=Cc1ccccc1[N+](=O)[O-] please.
Result: 95.3 µM

Request: Report Potency for O=C(/C=C/C=C/c1ccc2c(c1)OCO2)N1CCCCC1 please.
Result: 27.5 µM

Request: Report Potency for Cc1ccccc1F please.
Result: 176 µM
